The values you see were collected from ChEMBL document CHEMBL4138115.

Each entry below lists one item and its recorded ΔTm value.
test system: Salmon testes DNA; test: Binding affinity to wild type salmon sperm DNA assessed as change in melting temperature at 10 uM; type: nucleic-acid assay; conditions: Salmonidae
measured.metric: ΔTm (°C)

[[record]]
smiles_string = "CC(C)CCc1sc(NC(=O)c2cc(NC(=O)c3cc(NC(=N)c4cccc(F)c4)cn3C)cn2C)nc1C(=O)NCCCN(C)C"
measured_metric = "ΔTm"
prefix_operator = "="
endpoint_result = 4

[[record]]
smiles_string = "CN(C)CCCNC(=O)c1cc(NC(=O)c2cc(NC(=O)c3cc(NC(=N)c4ccccc4)cn3C)cn2C)cn1C"
measured_metric = "ΔTm"
prefix_operator = "="
endpoint_result = 11

[[record]]
smiles_string = "COc1cccc(C(=N)Nc2cc(C(=O)Nc3cc(C(=O)Nc4cc(C(=O)NCCCN(C)C)n(C)c4)n(C)c3)n(C)c2)c1"
measured_metric = "ΔTm"
prefix_operator = "="
endpoint_result = 11

[[record]]
smiles_string = "CN(C)CCCNC(=O)c1cc(NC(=O)c2cc(NC(=O)c3cc(NC(=N)c4cnc5ccccc5c4)cn3C)cn2C)cn1C"
measured_metric = "ΔTm"
prefix_operator = ">"
endpoint_result = 17

[[record]]
smiles_string = "CC(=O)Nc1cc(C(=O)Nc2cc(C(=O)Nc3cc(C(=O)NCCCN(C)C)n(CCC(C)C)c3)n(C)c2)n(C)c1"
measured_metric = "ΔTm"
prefix_operator = "="
endpoint_result = 3

[[record]]
smiles_string = "CC(C)CCc1sc(NC(=O)c2cc(NC(=O)c3cc(NC(=N)c4cccc(Cl)c4)cn3C)cn2C)nc1C(=O)NCCCN(C)C"
measured_metric = "ΔTm"
prefix_operator = "="
endpoint_result = 5

[[record]]
smiles_string = "COc1cccc(C(=N)Nc2cc(C(=O)Nc3cc(C(=O)Nc4cc(C(=O)NCCCN(C)C)n(CCC(C)C)c4)n(C)c3)n(C)c2)c1"
measured_metric = "ΔTm"
prefix_operator = "="
endpoint_result = 5

[[record]]
smiles_string = "COc1cccc(C(=N)Nc2cc(C(=O)Nc3cc(C(=O)Nc4nc(C(=O)NCCCN(C)C)c(CCC(C)C)s4)n(C)c3)n(C)c2)c1"
measured_metric = "ΔTm"
prefix_operator = "="
endpoint_result = 7

[[record]]
smiles_string = "CC(C)CCc1sc(NC(=O)c2cc(NC(=O)c3cc(NC(=N)c4ccc(Cl)cc4)cn3C)cn2C)nc1C(=O)NCCCN(C)C"
measured_metric = "ΔTm"
prefix_operator = "="
endpoint_result = 4

[[record]]
smiles_string = "CC(=O)Nc1cc(C(=O)Nc2cc(C(=O)Nc3cc(C(=O)NCCCN(C)C)n(C)c3)n(C)c2)n(C)c1"
measured_metric = "ΔTm"
prefix_operator = "="
endpoint_result = 5

[[record]]
smiles_string = "CC(C)CCc1sc(NC(=O)c2cc(NC(=O)c3cc(NC(=N)c4cnc5ccccc5c4)cn3C)cn2C)nc1C(=O)NCCCN(C)C"
measured_metric = "ΔTm"
prefix_operator = "="
endpoint_result = 2

[[record]]
smiles_string = "CC(C)CCn1cc(NC(=O)c2cc(NC(=O)c3cc(NC(=N)c4ccccc4)cn3C)cn2C)cc1C(=O)NCCCN(C)C"
measured_metric = "ΔTm"
prefix_operator = "="
endpoint_result = 8

[[record]]
smiles_string = "CC(C)CCc1sc(NC(=O)c2cc(NC(=O)c3cc(NC(=N)c4ccccc4)cn3C)cn2C)nc1C(=O)NCCCN(C)C"
measured_metric = "ΔTm"
prefix_operator = "="
endpoint_result = 7

[[record]]
smiles_string = "CC(C)CCc1sc(NC(=O)c2cc(NC(=O)c3cc(NC(=N)c4ccc(F)cc4)cn3C)cn2C)nc1C(=O)NCCCN(C)C"
measured_metric = "ΔTm"
prefix_operator = "="
endpoint_result = 9

[[record]]
smiles_string = "CN(C)CCCNC(=O)c1cc(NC(=O)c2cc(NC(=O)c3cc(NC(=N)N)cn3C)cn2C)cn1C"
measured_metric = "ΔTm"
prefix_operator = "="
endpoint_result = 5

